assay: Plasma pharmacokinetics in patients; assay type: in vivo, human; conditions: human, plasma, intravenous, 64 mg/m2
PROPERTY MEASURED: half-life
Respond with the figure and its unit, in that order.

Let me know recorded half-life for Cc1cc(Nc2cc(N3CCN(C)CC3)nc(Sc3ccc(NC(=O)C4CC4)cc3)n2)[nH]n1 , thanks.
8 h

###

assay: Plasma pharmacokinetics in patients; type: in vivo, human; conditions: human, plasma, intravenous, 16 mg/m^2/hr
PROPERTY MEASURED: Cmax (nM)
Numbers only, in nM.

Please supply the value of reported Cmax for the item Cc1cc(Nc2cc(N3CCN(C)CC3)nc(Sc3ccc(NC(=O)C4CC4)cc3)n2)[nH]n1
911
